target: Recombinant human renin (Homo sapiens, UniProt P00797); assay: Inhibition of renin (fluorogenic peptide substrate); conditions: recombinant human renin 5 nM, fluorogenic peptide substrate 10 μM, 2 h at room temperature, Tris buffer pH 8; compounds tested as the obtained salt
Sequence (P00797 67-406): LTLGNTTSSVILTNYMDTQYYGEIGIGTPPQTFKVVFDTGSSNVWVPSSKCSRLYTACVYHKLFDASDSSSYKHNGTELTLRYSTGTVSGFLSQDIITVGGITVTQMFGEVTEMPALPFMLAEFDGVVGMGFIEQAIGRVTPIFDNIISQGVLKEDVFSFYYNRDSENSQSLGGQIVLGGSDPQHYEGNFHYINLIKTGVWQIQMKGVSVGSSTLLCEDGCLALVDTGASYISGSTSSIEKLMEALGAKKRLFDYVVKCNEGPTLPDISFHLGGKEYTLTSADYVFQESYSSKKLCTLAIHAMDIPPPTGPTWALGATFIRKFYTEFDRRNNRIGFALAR
Listing of entries alongside the reported IC50.
PROPERTY: IC50

> print(dat)
                                entry.smiles  endpoint.value
 1  CNC(=O)c1ccc2c(-c3ccccc3)c(Cc3cccc(F)c3C)c(C(=O)N3CCNCC3)n2c1           64 nM
 2  Cc1c(F)cccc1Cc1c(C(=O)N2CCNCC2)c2cc(Br)ccn2c1-c1ccccc1          360 nM
 3  COC(=O)CCNC(=O)C[C@H]1CN(C(=O)c2c(Cc3cccc(F)c3C)c(-c3ccccc3)c3ccccn23)CCN1           31 nM
 4  Cc1c(F)cccc1Cc1c(-c2ccccc2)c2ccccn2c1C(=O)N1CCN[C@@H](CC(=O)NCC(C)(C)C(N)=O)C1          2.6 nM
 5  Cc1c(F)cccc1Cc1c(-c2ccccc2)c2ccccn2c1C(=O)N1CCN[C@@H](CC(=O)NCc2cccnc2)C1           38 nM
 6  COCCN(C)C(=O)C[C@H]1CN(C(=O)c2c(Cc3cccc(F)c3C)c(-c3ccccc3)c3cc(C(=O)N(C)C)cnn23)CCN1           10 nM
 7  Cc1c(F)cccc1Cc1c(C2CCCCC2)c2ccccn2c1C(=O)N1CCNCC1           38 nM
 8  Cc1c(F)cccc1Cc1c(-c2ccccc2)c2ccccn2c1C(=O)N1CCNCC1          7.1 nM
 9  Cc1cccc(C)c1Cc1c(-c2ccccc2)c2ccccn2c1C(=O)N1CCN[C@H](C)C1          870 nM
10  Cc1c(F)cccc1Cc1c(-c2ccccc2)c2ccccn2c1C(=O)N1CCN[C@@H](CO)C1          100 nM
11  Cc1c(F)cccc1Cc1c(-c2ccccc2)c2ccccn2c1C(=O)N1CCN[C@@H](CC(=O)NCCS(C)(=O)=O)C1           21 nM
12  Cc1c(F)cccc1Cc1c(-c2ccccc2)c2ccccn2c1C(=O)N1CCN[C@@H](CC(=O)NCC2CCOCC2)C1          2.6 nM
13  Cc1c(F)cccc1Cc1c(C(=O)N2CCN[C@@H](C)C2)c2ccccn2c1-c1ccccc1           76 nM
14  Cc1c(F)cccc1Cc1c(-c2ccccc2)c2cccnn2c1C(=O)N1CCNCC1          4.3 nM
15  Cc1c(F)cccc1Cc1c(-c2ccccc2)c2cc(O)cnn2c1C(=O)N1CCNCC1          8.2 nM
